Assay: Acute toxicity, rats
Reported conditions: rat, in vivo, ip; male rats, 200-250 g, i/p
Test readout: LD50 (mg/kg)

{"columns": ["Smiles structure", "Test readout", "Numeric result"],
 "data": [
  ["NCCc1nnc(N)s1", "LD50", 1]
]}

###

Assay: Acute toxicity, guinea pigs
Reported conditions: guinea pig, in vivo, ip; male guinea pigs, 280-350 g, i/p

{"columns": ["Smiles structure", "LD50 (mg/kg)"],
 "data": [
  ["NCCc1nnc(N)s1", 360]
]}
